The measured values listed here are drawn from ChEMBL document CHEMBL2169835.

- protocol: Therapeutic index, ratio of IC50 for mouse Peritoneal macrophages to IC50 for pentamidine-resistant Leishmania donovani AG83PentR50 promastigote
- measurement conditions: read-out: Ratio IC50
Reported selectivity ratio by item:
quantity kind: selectivity ratio

{"mol smiles": "O=c1cc(-c2ccc(OCCOCCN(CCOCCOc3ccc(-c4cc(=O)c5ccccc5o4)cc3)Cc3ccncc3)cc2)oc2ccccc12", "quantity kind": "selectivity ratio", "readout value": "> 677"}
{"mol smiles": "O=c1c(O)c(-c2ccc(O)c(O)c2)oc2cc(O)cc(O)c12", "quantity kind": "selectivity ratio", "readout value": "> 1.4"}
{"mol smiles": "NC[C@@H]1O[C@H](O[C@H]2[C@@H](O)[C@H](O[C@@H]3[C@@H](O)[C@H](N)C[C@H](N)[C@H]3O[C@H]3O[C@H](CO)[C@@H](O)[C@H](O)[C@H]3N)O[C@@H]2CO)[C@H](N)[C@@H](O)[C@@H]1O", "quantity kind": "selectivity ratio", "readout value": "> 1.2"}
